Entry source: ChEMBL document CHEMBL5537133

# Test summary: Cmax in ICR mouse at 6 mg/kg, iv measured after 24 hrs by LC-MS/MS analysis
# Type: ADME, organism-based
# Experimental context: in vivo
Quantity name: Cmax (ng/mL)
Provide only the numeric value, understood in ng/mL.

Consider the compound `COc1ncc(-c2cc(OCCCCCCC(=O)Nc3ccccc3N)c3ncnc(C)c3c2)cc1NS(=O)(=O)c1ccc(F)cc1F` and give its measured Cmax.
8310

====

# Test summary: Oral bioavailability in ICR mouse at 60 mg/kg measured after 24 hrs by LC-MS/MS analysis
# Assay type: ADME, organism-based
# Experimental context: in vivo
Quantity name: bioavailability (%)
Provide only the numeric value, understood in %.

Consider the compound `COc1ncc(-c2cc(OCCCc3ccc(C(=O)Nc4ccccc4N)cc3)c3ncnc(C)c3c2)cc1NS(=O)(=O)c1ccc(F)cc1F` and give its measured bioavailability.
3.5

====

Items are presented alongside their recorded IC50.
# Tested on: NB-4
# Test summary: Antiproliferative activity against human NB4 cells assessed as reduction in cell viability incubated for 72 hrs by CCK-8 assay
# Assay type: functional, cell-based
# Experimental context: NB-4, 72 h

>>> measured_value("Nc1cc(C(F)(F)F)c(-c2cc(N3CCOCC3)nc(N3CCOCC3)n2)cn1")
"750 nM"
>>> measured_value("COc1ncc(-c2cc(OCCCc3ccc(C(=O)Nc4ccccc4N)cc3)c3ncnc(C)c3c2)cc1NS(=O)(=O)c1ccc(F)cc1F")
"370 nM"
>>> measured_value("COc1ncc(-c2cc(OCCCCCCC(=O)Nc3ccccc3N)c3ncnc(C)c3c2)cc1NS(=O)(=O)c1ccc(F)cc1F")
"40 nM"

Consider the compound `Nc1ccc(F)cc1NC(=O)c1ccc(CNC(=O)/C=C/c2cccnc2)cc1` and give its measured IC50.
1900 nM

====

Items are presented alongside their recorded pIC50.
# Test system: L1210
# Test summary: Antiproliferative activity against mouse L1210 cells assessed as reduction in cell viability incubated for 72 hrs by CCK-8 assay
# Type: functional, cell-based
# Experimental context: L1210, 72 h
# pIC50: negative log10 of molar concentration; output just the value

Recorded pIC50, per entry:
>>> measured_value("COc1ncc(-c2cc(OCCCCCCC(=O)Nc3ccccc3N)c3ncnc(C)c3c2)cc1NS(=O)(=O)c1ccc(F)cc1F")
6.85
>>> measured_value("COc1ncc(-c2cc(OCCCc3ccc(C(=O)Nc4ccccc4N)cc3)c3ncnc(C)c3c2)cc1NS(=O)(=O)c1ccc(F)cc1F")
6.07

Could you now consider this next compound?
Consider the compound `Nc1cc(C(F)(F)F)c(-c2cc(N3CCOCC3)nc(N3CCOCC3)n2)cn1` and give its measured pIC50.
6.43
